Value source: paper PMC6411751

Target: Agam\Orco (Anopheles gambiae)
Construct: expressed in transfected cells; host or cells: Xenopus laevis oocytes injected with capped cRNA (plasmid pT7TS, gift of L. Zwiebel)
Test: cell-based
Format: cell-based
value.type: pIC50
Note on units: pIC50 is unitless, being -log10 of a concentration expressed in mol/L.

Study these solved cases before continuing.
>  <compound>
O=C/C=C/c1ccccc1 [trans-cinnamaldehyde]

>  <pIC50>
2.73

$$$$
>  <compound>
CC(C)(C)c1ccccc1O [2-tert-butylphenol]

>  <pIC50>
4.49

$$$$
>  <compound>
CC(C)(C)c1ccc(O)c(C(C)(C)C)c1 [2,4-di-tert-butylphenol]

>  <pIC50>
4.82

$$$$
>  <compound>
CCc1cccc(CC)c1O [2,6-diethylphenol]

>  <pIC50>
4.07

$$$$
>  <compound>
CCc1ccccc1O [2-ethylphenol]

>  <pIC50>
3.58

$$$$
>  <compound>
CC(C)c1cccc(C(C)(C)C)c1O [2-tert-butyl-6-isopropylphenol]

>  <pIC50>
4.30

$$$$

Tell me the measured pIC50 of c1ccc(CNc2ccccc2)cc1 [n-benzylaniline] , please. 3.94

Tell me the measured pIC50 of CC(C)c1cccc(C(C)C)c1O [propofol, 2,6-diisopropylphenol, reference compound] , please. 4.33

Tell me the measured pIC50 of CC(C)c1ccc(CO)cc1 [4-isopropylbenzyl alcohol] , please. 3.22

* * *

Measured pIC50, listed per entry for reference.
Target: Agam\Orco (Anopheles gambiae, UniProt Q7QCC7)
Construct: expressed in transfected cells; host or cells: Xenopus laevis oocytes injected with capped cRNA (plasmid pT7TS, gift of L. Zwiebel)
Sequence (Q7QCC7 1-478): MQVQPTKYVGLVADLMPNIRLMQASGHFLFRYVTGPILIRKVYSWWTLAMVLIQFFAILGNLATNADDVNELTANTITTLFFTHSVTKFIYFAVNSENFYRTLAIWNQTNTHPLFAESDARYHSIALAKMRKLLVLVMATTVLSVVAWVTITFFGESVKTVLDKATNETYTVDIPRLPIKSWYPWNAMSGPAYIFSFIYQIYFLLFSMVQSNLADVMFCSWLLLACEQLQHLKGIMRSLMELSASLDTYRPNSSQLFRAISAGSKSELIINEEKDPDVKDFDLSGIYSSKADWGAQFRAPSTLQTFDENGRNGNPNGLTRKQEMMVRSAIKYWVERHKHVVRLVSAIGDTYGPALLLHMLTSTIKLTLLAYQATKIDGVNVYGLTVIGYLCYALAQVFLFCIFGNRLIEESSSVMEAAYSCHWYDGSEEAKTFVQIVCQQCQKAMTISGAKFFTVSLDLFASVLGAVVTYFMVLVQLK
Experiment: cell-based
Assay type: cell-based
Conditions: Table 2; inhibition of Agam\Orco activated by 30 µM OLC12; mean ± SEM (n = 3–9); read-out: IC50
Note on units: pIC50 is unitless, being -log10 of a concentration expressed in mol/L.

Study these solved cases before continuing.
>  <molecule>
Cc1cc(C)c(O)c(C)c1 [2,4,6-trimethylphenol]

>  <study.target>
Agam\Orco (Anopheles gambiae, UniProt Q7QCC7)

>  <observed>
3.67

$$$$
>  <molecule>
CC(C)(C)c1cccc(C(C)(C)C)c1O [2,6-di-tert-butylphenol]

>  <study.target>
Agam\Orco (Anopheles gambiae, UniProt Q7QCC7)

>  <observed>
4.04

$$$$
>  <molecule>
Cc1ccc(O)c(C(C)(C)C)c1 [2-tert-butyl-4-methylphenol]

>  <study.target>
Agam\Orco (Anopheles gambiae, UniProt Q7QCC7)

>  <observed>
4.60

$$$$

Now turn to the next molecule.
Tell me the measured pIC50 of CC(C)c1ccc(O)c(C(C)C)c1 [C00014, 2,4-diisopropylphenol] , please. 4.43
